Test system: PC-3
ASSAY DETAILS: NCI tumour cell line growth inhibition, 48 h
The source made the active and inactive calls. Cut-off read from the data, not from the text of the source: active = GI50 up to about 1.1 µM and inactive = higher.
MEASURED METRIC: GI50

Solved entries (count: 3):
COC(OC)C1OC(CO)C(n2ccc(N)nc2=O)C1O (stereo not given) | > 100 µM (inactive)
O=C1NC2(CCN(CCc3ccccc3)CC2)Oc2ccccc21 | 33.9 µM (inactive)
O=C(O)C(=Cc1ccc(-c2ccc([N+](=O)[O-])cc2)o1)C(=O)O | > 100 µM (inactive)

Which value of GI50 has been reported for `CN1CCN(Cc2nc3c(s2)CCc2sccc2-3)CC1` in the records?
63.8 µM (inactive)

Which value of GI50 has been reported for CC(=O)OCC(OC(C)=O)C(OC(C)=O)C(/C=N\Nc1nc2ccccc2c(=O)[nH]1)=N\Nc1nc2ccccc2c(=O)[nH]1 (stereo not given) in the records?
> 100 µM (inactive)

Which value of GI50 has been reported for `O=C1C(Cl)=C(NCCCN2CCOCC2)C(=O)c2c(O)ccc(O)c21` in the records?
2.96 µM (inactive)

Which value of GI50 has been reported for COc1ccc2cc(C(C)C(O)c3cc(F)c(F)c(F)c3F)ccc2c1 (stereo not given) in the records?
> 100 µM (inactive)

Which value of GI50 has been reported for COP1(=O)NCc2ncccc2O1 (stereo not given) in the records?
> 100 µM (inactive)

Which value of GI50 has been reported for COc1cc2cc(C(=O)N3CC(CCl)c4ccccc43)[nH]c2c(OC)c1OC (stereo not given) in the records?
21.9 µM (inactive)

Which value of GI50 has been reported for CC(=O)OC1OC(c2ccoc2)C[C@@]12C1CCC3O[C@]3(C)[C@]1(C)C[C@H](OC(C)=O)[C@H]2C (stereo not given in full) in the records?
44.7 µM (inactive)

Which value of GI50 has been reported for O=P1(C(O)c2ccccc2)N(Cc2ccccc2)[C@@H]2CCCC[C@H]2N1Cc1ccccc1 (stereo not given in full) in the records?
24.5 µM (inactive)

Which value of GI50 has been reported for CC(Oc1ccc(Cl)cc1Cl)C(=O)NN1C(=O)CSC1c1ccc(Cl)cc1 (stereo not given) in the records?
38.5 µM (inactive)

Which value of GI50 has been reported for `Cc1cnc2nc(-c3sccc3C)cc(O)c2c1` in the records?
3.78 µM (inactive)

Which value of GI50 has been reported for `CCOc1ccc(N/C(=C(/C(Cl)=C(/Cl)NCCO)[N+](=O)[O-])n2nnc3ccccc32)cc1` in the records?
25.7 µM (inactive)

Which value of GI50 has been reported for `O=C1CN(c2ccc(Cl)cc2)C(=O)CN1CCN1CC(=O)N(c2ccc(Cl)cc2)CC1=O` in the records?
> 100 µM (inactive)

Which value of GI50 has been reported for `c1cncc(-c2cc(-c3cc(-c4cccnc4)[nH]n3)n[nH]2)c1` in the records?
> 100 µM (inactive)

Which value of GI50 has been reported for O=C1OCC(O)=C1C(c1ccc(Cl)cc1)c1cc2c(cc1O)OCO2 (stereo not given) in the records?
> 100 µM (inactive)

Which value of GI50 has been reported for N#CC(c1ccccc1)N(CCCCCCN(C(=O)c1ccccc1)C(C#N)c1ccccc1)C(=O)c1ccccc1 (stereo not given) in the records?
28.2 µM (inactive)

Which value of GI50 has been reported for `Nc1c2ccccc2nc2c1ccc1ncccc12` in the records?
16.3 µM (inactive)

Which value of GI50 has been reported for CC1CNC(c2ccc(-c3nc(-c4ccc(C5=NC(C)CN5)cc4)nc(N(C)C)n3)cc2)=N1 (stereo not given) in the records?
1.57 µM (inactive)

Which value of GI50 has been reported for CC1(C)SC2C(C(=O)O)N=C(Cc3ccccc3)N2C1C(=O)O (stereo not given) in the records?
42.7 µM (inactive)

Which value of GI50 has been reported for `C[C@H]1CC[C@@H]2[C@@H](C)[C@H]3[C@H](C[C@H]4[C@@H]5CC=C6C[C@@H](O)CC[C@]6(C)[C@H]5C[C@H](O)[C@]34C)N2C1` in the records?
> 100 µM (inactive)

Which value of GI50 has been reported for `OCCOCn1nc(-c2ccccc2)nc1-c1cnccn1` in the records?
> 100 µM (inactive)

Which value of GI50 has been reported for `CSc1ccc(NC(=O)Nc2cc(C)ccn2)cc1` in the records?
> 100 µM (inactive)

----------
Tested on: SW-620
ASSAY DETAILS: NCI tumour cell line growth inhibition, 48 h
Calls of active or inactive are those of the source. Cut-off read from the data, not from the text of the source: active = GI50 up to about 1.1 µM and inactive = higher.
# valid calls are T for active, F for inactive; nothing else

Take a look at these entries with their results.
OCc1ccc(C2CC(c3ccco3)=NN2c2ccccc2)o1 (stereo not given) | F
CC1(C)OCC(/C=C\C(O)CC2(C)OCCO2)CO1 (stereo not given) | F
Cn1cc(NC(=O)c2cc(NC(=O)CCCCCCCCC(=O)Nc3cc(C(=O)Nc4cc(C(=O)NCCC(N)N)n(C)c4)n(C)c3)cn2C)cc1C(=O)NCCC(=N)N | F
COc1ccc(/C=C/c2cnccn2)cc1OC | F
[O-][S+](Nc1ccccc1)c1ccc(N2CCOCC2)cc1 (stereo not given) | F
O=[N+]([O-])c1ccc(SN=S=NSc2cccc(SN=S=NSc3ccc([N+](=O)[O-])cc3)c2)cc1 | F

Outcome logged for `Cc1ccc(C(=O)O)cc1S(=O)(=O)Nn1cnc2ccc(S(=O)(=O)Nc3ccccc3C(=O)O)cc2c1=O` in this assay:
F

Outcome logged for `COCCOC1=C(Cl)C(=O)c2c(O)ccc(O)c2C1=O` in this assay:
T

Outcome logged for `Clc1ccc(/C=c2\nc(-c3ccccc3)n3c2nc2ccccc23)cc1` in this assay:
F

Outcome logged for `CCN(CC)Cc1ccc2cccnc2c1O` in this assay:
F

----------
Test system: KM-20L2
ASSAY DETAILS: NCI tumour cell line growth inhibition, 48 h
Calls of active or inactive are those of the source. No stated cut-off is given here; in the data, active = GI50 up to about 1.1 µM and inactive = higher.
# valid calls are active, inactive; nothing else

Take a look at these entries with their results.
CCOC(=O)C1=C(Nc2ccc(Br)cc2)OC/C1=N\NC(=O)c1ccccc1O | inactive
O=C(O)c1ccc(S(=O)(=O)c2ccccc2)c([N+](=O)[O-])c1 | inactive
OC12c3ccccc3C1CCCCCC21OCCCO1 (stereo not given) | inactive

Outcome logged for COc1c2c(c(O)c3c4c(c(C)cc13)C1OC3(C(OC)OC5CC(C)(O)C(OC6CC(C)(O)C(O)C(C)O6)C(C)O5)OC1C(OC)(O4)C31CO1)C(=O)C(O)CC2OC1CC(C)(O)C(OC(C)=O)C(C)O1 (stereo not given) in this assay:
active

Outcome logged for Cc1c2cc[n+](C)cc2c(C)c2c1[nH]c1ccc(O)cc12 [ELLIPTINIUM ACETATE] in this assay:
inactive

Outcome logged for `Cn1c2c([N+](=O)[O-])cccc2c(=O)c2c(O)cc3c(c21)C=CC(C)(C)O3` in this assay:
inactive

Outcome logged for NC(=O)c1coc(C2OC(CO)C(O)C2O)n1 (stereo not given) in this assay:
inactive

----------
Test system: NCI/ADR-RES
ASSAY DETAILS: NCI tumour cell line growth inhibition, 48 h
Activity calls are given as the source filed them. Rule as the data show it: active = GI50 up to about 1.1 µM and inactive = higher. Square brackets hold non-standard residues; d marks the D form. Peptide text beside a SMILES is read from it. * marks the point of attachment. Boc = CC(C)(C)OC(=O)*; OBn = c1ccc(CO*)cc1
MEASURED METRIC: GI50

Solved entries (count: 8):
c1cncc(-c2cc(-c3cc(-c4cccnc4)[nH]n3)n[nH]2)c1 | > 100 µM (inactive)
CCOC(=O)/C=C(/C(=O)OCC)n1ccc(=O)n(Cc2cnnn2CCCCOC(C)=O)c1=O | > 100 µM (inactive)
C[C@@H](NC(=O)CNC(=O)OC(C)(C)C)C(=O)N[C@@H](Cc1ccccc1)C(=O)OCc1ccccc1 (Boc-Gly-[dA]-Phe-OBn) | > 100 µM (inactive)
CC(=O)OC1COC(Nc2nc(NCc3ccccc3)n(C)c(=O)c2N=O)C(OC(C)=O)C1OC(C)=O (centres undefined) | > 10 µM (inactive)
Cc1ccc(S(=O)(=O)NC(=O)Nc2cc(Cl)c(S(N)(=O)=O)cc2S(N)(=O)=O)cc1 | > 100 µM (inactive)
CCC[C@H](N[S+]([O-])c1ccc(C)cc1)C(C(=O)OCC)=C(c1ccccc1)c1ccccc1 (some centres undefined) | 27.7 µM (inactive)
CSc1ncnc2c1cnn2Cc1cn(COCC(O)CO)nn1 (centres undefined) | > 100 µM (inactive)
c1cn[nH]c1 | > 10 µM (inactive)

Kindly consider the entry below.
Which value of GI50 has been reported for `CCOC(=O)c1ccc(OCc2nc3cc(C(F)(F)F)ccc3nc2-c2ccccc2)cc1` in the records?
> 100 µM (inactive)

----------
Parameter GI50: see the listing below.
Test system: SK-OV-3
ASSAY DETAILS: NCI tumour cell line growth inhibition, 48 h
Calls of active or inactive are those of the source. Rule as the data show it: active = GI50 up to about 1.1 µM and inactive = higher.

Solved entries (count: 5):
O=C(O)C(=Cc1ccc(-c2ccc([N+](=O)[O-])cc2)o1)C(=O)O | > 100 µM (inactive)
CC(=O)NCCCCN(CCCNC(C)=O)C(=O)CNS(=O)(=O)c1cccc2c(N(C)C)cccc12 | > 100 µM (inactive)
c1cncc(-c2cc(-c3cc(-c4cccnc4)[nH]n3)n[nH]2)c1 | > 100 µM (inactive)
COc1ccccc1/N=N/C(C(=O)c1ccccc1)C(=O)c1ccccc1 | 45.1 µM (inactive)
CN(C)CCCNC1=C(Cl)C(=O)c2c(O)ccc(O)c2C1=O | > 10 µM (inactive)

Which value of GI50 has been reported for `Cc1cc(N(CCC#N)CCC#N)ccc1/C=C1N=C(/C=C/c2ccccc2)OC(=O)N\1` in the records?
92.3 µM (inactive)

Which value of GI50 has been reported for `N#C/C(=C\c1ccc2[nH]ccc2c1)C(=O)c1ccc(O)c(O)c1` in the records?
59.4 µM (inactive)

Which value of GI50 has been reported for COc1ccc2c(c1)CC1C3(CCCCC23)CC[N+]1(C)C (stereo not given) in the records?
> 100 µM (inactive)

Which value of GI50 has been reported for COc1cc(C2c3cc4c(cc3OC(N3CCCCC3)C2C)OCO4)cc(OC)c1OC (stereo not given) in the records?
2.77 µM (inactive)

Which value of GI50 has been reported for `COc1ccc2nc(N/N=C/c3sccc3C)cc(C)c2c1` in the records?
13.2 µM (inactive)
